target: HIV-1 reverse transcriptase (Human immunodeficiency virus type 1 group M subtype B, UniProt P04585); construct: purchased; experiment: Screening for the in vitro activity against the HIV-1 reverse transcriptase; type: biochemical; conditions: IC50, initial concentration 200 μg/ml
Structures can show the parent of a compound that is named as a salt.
Assign IC50 to each entry below.

# lookup: IC50 of CC(C)C1CC23OC1(O)CC(=CN1CCNCC1)C2CCC3C (stereo not shown) [Compound 7, Curcumol piperazine]
> 624 µM

Quick one: IC50 of CC(C)C1CC23OC1(O)CC(=CBr)C2CCC3C (stereo not shown) [Compound 17, Curcumol monobromide] ?
> 634 µM

Can you share its IC50? I mean this compound: CC(C)C1CC23OC1(O)CC(C)C2CCC3C (stereo not shown) [Compound 33, hydrogenated curcumol derivative]
> 839 µM

Fill in: IC50 of C=C1CC2(OS(=O)(=O)O)OC3(CC2C(C)C)C(C)CCC13 (stereo not shown) [Compound 20, Curcumol sulfonate] is ___
> 632 µM

Please look up its IC50: CC(C)C1CC23OC1(O)CC1(CO1)C2CCC3C (stereo not shown) [Compound 47, Curcumol epoxy compound]
> 793 µM

Requested read-out: IC50. Entry: C=C1CC2(OS(=O)(=O)[O-])OC3(CC2C(C)C)C(C)CCC13.[Na+] (stereo not shown) [Compound 21, Curcumol sodium sulfonate]
> 591 µM

Would you mind telling me what IC50 value was observed for CC(C)C1CC23OC1(O)CC(=CN1CCNCC1)C2CCC3C (stereo not shown) [Compound 8, Curcumol piperazine hydrochloride] ?
> 624 µM

----------
test system: Hela human cervical carcinoma; test: In vitro inhibition rate to tumor cells (MTT), Hela; assay type: cell-based; conditions: Homo sapiens, HeLa, 50 μg/ml; Table 2 (repeated screening); read-out: inhibition rate, Results (%) Hela
test_readout: inhibition at 50 µg/mL (%)
// note: answer is a bare numeric in %

Form entry - test system: Hela human cervical carcinoma; read-out: inhibition at 50 µg/mL; compound: C=C1CC2(OC(=O)C(C)C)OC3(CC2C(C)C)C(C)CCC13 (stereo not drawn) [Compound 3, Curcumol isobutyrate]
70.2

Param readout = inhibition at 50 µg/mL; param system = Hela human cervical carcinoma; param query = C=C1CC2(O)OC3(CC2C(C)C)C(C)CCC13 (stereo not drawn) [Curcumol E, Curcumol, reference compound] ; response: value
70.1

Give the reported inhibition at 50 µg/mL for C=C1CC2(OC(=O)CCC)OC3(CC2C(C)C)C(C)CCC13 (stereo not drawn) [Compound 2, Curcumol butyrate] (system: Hela human cervical carcinoma).
75.2

# get_value(readout= inhibition at 50 µg/mL, system= Hela human cervical carcinoma) for CC(C)C1CC23OC1(O)CC1(CO1)C2CCC3C (stereo not drawn)
80.8

Request - read-out inhibition at 50 µg/mL | tested on Hela human cervical carcinoma | compound CC(C)C1CC23OC1(O)C/C(=C\Nc1ccc(O)cc1)C2CCC3C (stereo not drawn) [Compound 5, Curcumol p-hydroxy aniline]
92.3

What is its inhibition at 50 µg/mL for Hela human cervical carcinoma? Entry: C=C1CC2(OC)OC3(CC2C(C)C)C(C)CCC13 (stereo not drawn)
75.5

----------
Task for the reader: assign each of the following compounds its reported inhibition rate, Results (%) A-549.
test system: A-549 human lung adenocarcinoma; assay: In vitro inhibition rate to tumor cells (MTT), A-549; format: cell-based; details: 50 μg/ml; Table 2 (repeated screening)

Give A-549 human lung adenocarcinoma inhibition rate, Results (%) A-549 for CC(C)C1CC23OC1(O)CC(C)(N1CCNCC1)C2CCC3C (centres unmarked)
11.24%

// lookup inhibition rate, Results (%) A-549 | system=A-549 human lung adenocarcinoma | key= CCCCNC=C1CC2(OC)OC3(CC2C(C)C)C(C)CCC13.Cl (centres unmarked)
2.31%

Find the measured inhibition rate, Results (%) A-549: item CC(C)C1CC23OC1(O)CC(C)(O)C2CCC3C (centres unmarked) , target or system A-549 human lung adenocarcinoma.
2.77%

GET /values?readout=inhibition rate, Results (%) A-549&system=A-549 human lung adenocarcinoma&item= CC(C)C1CC23OC1(O)CC(CN1CCNCC1)(N1CCNCC1)C2CCC3C.Cl (centres unmarked) [Compound 42, Curcumol bispiperazine hydrochloride]
3.12%

Checklist item: inhibition rate, Results (%) A-549 tested on A-549 human lung adenocarcinoma, entry C=CC(=O)OC12CC(=C)C3CCC(C)C3(CC1C(C)C)O2 (centres unmarked) [Compound 22, Curcumol acrylate] , value?
12.36%

----------
Kindly supply the reported inhibition at 50 µg/mL values for the records listed here.
Test system: MCF-7 human mammary adenocarcinoma
Test: In vitro inhibition rate to tumor cells (MTT), MCF-7
Type: cell-based
Settings: Homo sapiens, MCF7, 50 μg/ml; Table 3 (repeated screening); read-out: inhibition rate, Results (%) MCF-7
Procedure: (1) Single cell suspension was seeded into 96-well plates (×3) (the cells was diluted in the PRMI-1640 minimum medium to 3×10^4 cells/ml, […] diluted cells/well). […] The experiments were performed in quadruplicate. (2) The medium was removed. Solutions of the anti-tumor agents (15 compounds) were prepared in a freshly prepared medium at the concentrations indicated in the following Table. […] (5) OD value (λ=570 nm) was measured with an Enzyme-Linked Detector. […]
Counter-ions that a name gives are not always drawn.
Report the value in % with no unit label.

Which inhibition at 50 µg/mL is reported for this molecule? CC(C)C1CC23OC1(O)C/C(=C\Nc1ccc(O)cc1)C2CCC3C (stereo not shown) [Compound 6, Curcumol p-hydroxy aniline hydrochloride]
94.1

What measured inhibition at 50 µg/mL goes with CC(C)C1CC23OC1(O)CC(=CN1CCNCC1)C2CCC3C (stereo not shown) [Compound 7, Curcumol piperazine] ?
84.1

Consider the molecule shown here: CC(C)C1CC23OC1(O)CC(=CN1CCNCC1)C2CCC3C (stereo not shown) [Compound 8, Curcumol piperazine hydrochloride] What is its recorded inhibition at 50 µg/mL?
86.2

Which value of inhibition at 50 µg/mL has been reported for C=C1CC2(O)OC3(CC2C(C)C)C(C)CCC13 (stereo not shown) [Curcumol E, Curcumol, reference compound] in the records?
51.2

----------
Field: inhibition rate, Results (%) LLC. Provide a value for each of the compounds that follow.
test system: LLC mouse Lewis lung carcinoma; assay: In vitro inhibition rate to tumor cells (MTT), LLC; assay type: cell-based; settings: 50 μg/ml; Table 1
Please state the number and follow it with the unit.

Return reported inhibition rate, Results (%) LLC; argument: CC(C)C1CC23OC1(O)CC(Br)(CBr)C2CCC3C (stereo not drawn) [Compound 30, Curcumol dibromide]
−1.83%

I am curious: what inhibition rate, Results (%) LLC value has been reported for CC(C)C1CC23OC1(O)CC(C)(O)C2CCC3C (stereo not drawn) ?
8.97%

# input compound: CC(C)C1CC23OC1(O)CC(C)(Br)C2CCC3C (stereo not drawn) [Compound 34, Curcumol monobromide without double bond] ; wanted: its inhibition rate, Results (%) LLC
−18.52%

Quick check: inhibition rate, Results (%) LLC of CC(C)C1CC23OC1(O)CC(CN1CCNCC1)(N1CCNCC1)C2CCC3C (stereo not drawn) ?
30.96%

Looking for the measured inhibition rate, Results (%) LLC of CCOC12CC(=CO[N+](=O)[O-])C3CCC(C)C3(CC1C(C)C)O2 (stereo not drawn) [Compound 29, Curcumol ethyl ether nitrate] , can you help?
−10.12%

Which inhibition rate, Results (%) LLC is reported for this compound? CCCCNC=C1CC2(O)OC3(CC2C(C)C)C(C)CCC13.Cl (stereo not drawn) [Compound 14, Curcumol n-butyl amine hydrochloride]
−10.57%

# query: inhibition rate, Results (%) LLC of entry CCCCNC=C1CC2(O)OC3(CC2C(C)C)C(C)CCC13 (stereo not drawn)
0.24%

Which inhibition rate, Results (%) LLC is reported for this compound? CC(C)C1CC23OC1(O)C/C(=C\Nc1ccc(O)cc1)C2CCC3C (stereo not drawn) [Compound 5, Curcumol p-hydroxy aniline]
3.21%

Name the recorded inhibition rate, Results (%) LLC for CC(C)C1CC23OC1(O)CC(C)(N1CCNCC1)C2CCC3C (stereo not drawn) .
−2.06%

If you can, please state the reported inhibition rate, Results (%) LLC value of CC(C)C1CC23OC1(O)CC(=CO)C2CCC3C (stereo not drawn) [Compound 18, Curcumol monohydroxy compound] .
4.18%

If you can, please state the reported inhibition rate, Results (%) LLC value of C=CC(=O)OC12CC(=C)C3CCC(C)C3(CC1C(C)C)O2 (stereo not drawn) [Compound 22, Curcumol acrylate] .
−6.01%

Entry CCCCNC=C1CC2(OC)OC3(CC2C(C)C)C(C)CCC13.Cl (stereo not drawn) : reported inhibition rate, Results (%) LLC = ?
0.24%

Consider the compound shown here: CCCCNC1(C)CC2(OC)OC3(CC2C(C)C)C(C)CCC13.Cl (stereo not drawn) What is its recorded inhibition rate, Results (%) LLC?
−12.99%

Query (compound): C=C1CC2(OC(=O)c3ccccc3)OC3(CC2C(C)C)C(C)CCC13 (stereo not drawn) [Compound 4, Curcumol benzoate] ; field requested: inhibition rate, Results (%) LLC
1.01%

// inhibition rate, Results (%) LLC lookup, key: CC(C)C1CC23OC1(O)C/C(=C\NC(C)(C)C)C2CCC3C (stereo not drawn)
−11.83%
